For each record, write down the corresponding pIC50.
Biological target: ALK5 (Homo sapiens, UniProt P36897)
Construct: purchased Reaction Biology Corp (Malvern, Pa.)
Sequence (P36897 34-503): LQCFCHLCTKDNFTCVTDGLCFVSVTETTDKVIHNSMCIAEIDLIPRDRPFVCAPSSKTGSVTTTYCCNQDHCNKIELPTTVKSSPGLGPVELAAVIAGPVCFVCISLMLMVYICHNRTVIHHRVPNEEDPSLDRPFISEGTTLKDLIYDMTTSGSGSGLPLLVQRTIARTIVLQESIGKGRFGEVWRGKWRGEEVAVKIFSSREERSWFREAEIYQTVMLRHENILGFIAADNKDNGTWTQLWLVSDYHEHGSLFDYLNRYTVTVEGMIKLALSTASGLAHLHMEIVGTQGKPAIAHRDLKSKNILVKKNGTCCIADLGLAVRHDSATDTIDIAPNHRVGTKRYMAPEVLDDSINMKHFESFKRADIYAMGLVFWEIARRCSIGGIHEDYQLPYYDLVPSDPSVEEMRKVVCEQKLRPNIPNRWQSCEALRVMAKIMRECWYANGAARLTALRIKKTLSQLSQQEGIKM
Assay: ALK5 enzyme inhibition assay (casein substrate, 10 uM ATP, 33P-ATP, filter-binding; Reaction Biology Corp)
Format: biochemical
Conditions: Table 11
pIC50: −log10 of the molar value.

Answered cases to consult:
recordSmiles	targetOrSystem	reported
Cc1cccc(-c2nc(CN[C@H](C)c3ccccc3)[nH]c2-c2ccc3ncnn3c2)n1	ALK5 (Homo sapiens, UniProt P36897)	6.00 to 7.00
Cc1cccc(-c2nc(CNCc3ccccc3-c3ccccc3)[nH]c2-c2ccc3ncccc3n2)n1	ALK5 (Homo sapiens, UniProt P36897)	7.30 to 10.00
Cc1cccc(-c2nc(CNCc3ccccc3-c3cccc(CNC(=O)OC(C)(C)C)c3)[nH]c2-c2ccc3ncnn3c2)n1	ALK5 (Homo sapiens, UniProt P36897)	6.00 to 7.00
Cc1cccc(-c2nc(CNCCc3cccc(F)c3)[nH]c2-c2ccc3ncnn3c2)n1	ALK5 (Homo sapiens, UniProt P36897)	7.30 to 10.00
Cc1cccc(-c2nc(CN[C@@H](C)c3ccccc3)[nH]c2-c2ccc3ncnn3c2)n1	ALK5 (Homo sapiens, UniProt P36897)	5.00 to 6.00
Cc1cccc(-c2nc(CNCc3cccc(-c4ccccc4)c3)[nH]c2-c2ccc3ncnn3c2)n1	ALK5 (Homo sapiens, UniProt P36897)	6.00 to 7.00
CCc1ccccc1CNCc1nc(-c2cccc(C)n2)c(-c2ccc3ncnn3c2)[nH]1	ALK5 (Homo sapiens, UniProt P36897)	7.30 to 10.00
Cc1cccc(-c2nc(CNCc3ccccc3C)[nH]c2-c2ccc3ncnn3c2)n1	ALK5 (Homo sapiens, UniProt P36897)	7.30 to 10.00

Kindly review the next compound as well.
Entry Cc1cccc(CNCc2nc(-c3cccc(C)n3)c(-c3ccc4ncnn4c3)[nH]2)c1 ; assay system ALK5 (Homo sapiens, UniProt P36897); pIC50 recorded at 6.00 to 7.00
